Listed here: items and their measured log10(IC50).
Target: full-length beta-Catenin (Uniprot ID P35222) (Homo sapiens)
Construct: 10 nM full-length beta-Catenin (Uniprot ID P35222)
Sequence (P35222 whole entry): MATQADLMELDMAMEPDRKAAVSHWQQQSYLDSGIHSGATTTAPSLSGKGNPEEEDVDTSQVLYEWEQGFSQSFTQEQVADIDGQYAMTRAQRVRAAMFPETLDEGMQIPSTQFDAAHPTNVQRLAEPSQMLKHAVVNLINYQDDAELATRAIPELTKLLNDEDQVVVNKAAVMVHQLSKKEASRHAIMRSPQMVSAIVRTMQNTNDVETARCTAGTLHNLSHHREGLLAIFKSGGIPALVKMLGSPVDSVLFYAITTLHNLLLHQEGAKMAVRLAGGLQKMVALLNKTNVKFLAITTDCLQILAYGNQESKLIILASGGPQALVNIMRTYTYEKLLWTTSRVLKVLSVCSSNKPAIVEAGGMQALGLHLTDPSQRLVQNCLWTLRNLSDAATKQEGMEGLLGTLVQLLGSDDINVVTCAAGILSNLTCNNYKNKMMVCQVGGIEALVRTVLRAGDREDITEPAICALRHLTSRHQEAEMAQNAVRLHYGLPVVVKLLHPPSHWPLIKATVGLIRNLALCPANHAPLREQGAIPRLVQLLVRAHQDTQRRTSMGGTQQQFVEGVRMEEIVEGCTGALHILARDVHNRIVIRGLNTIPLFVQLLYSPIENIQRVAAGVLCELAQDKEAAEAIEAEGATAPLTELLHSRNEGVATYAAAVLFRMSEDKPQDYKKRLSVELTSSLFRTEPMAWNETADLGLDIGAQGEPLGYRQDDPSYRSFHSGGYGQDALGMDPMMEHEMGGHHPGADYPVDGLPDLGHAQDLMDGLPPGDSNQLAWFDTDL
Assay: Fluorescence polarization IC50 (beta-catenin / 5FAM-TCF4 10-53 competition)
Assay type: binding
Conditions: fluorescence polarization; read-out: beta-Catenin FP IC50
Values reflect log10 of reported IC50 (nM).

Use the examples below as a reference point.
CC(=O)N1CCC[C@]12CC=CCCCC1(CCCC=CCCCOC(=O)N3CC[C@@](C(=O)N[C@@H](Cc4ccsc4)C(=O)N[C@@H](Cc4csc5ccccc45)C(=O)N[C@@H](CCC(N)=O)C(N)=O)(C3)NC(=O)[C@H](CC(C)C)NC(=O)[C@H](Cc3ccccc3)NC(=O)[C@H](C)NC(=O)[C@H](C)NC(=O)[C@H](CN(CC(=O)O)C(=O)CN3CCOCC3)NC(=O)[C@H](CC(=O)O)NC1=O)NC(=O)[C@H](CC(C)(C)C)NC(=O)[C@H](CC(=O)O)NC2=O (stereo partly drawn) : 1.00
CC(=O)N1CCC[C@]12CC=CCCCC1(CCCC=CCCCOC(=O)N3CC[C@@](C(=O)N[C@@H](Cc4ccsc4)C(=O)N[C@@H](Cc4csc5ccccc45)C(=O)N[C@@H](CCC(N)=O)C(N)=O)(C3)NC(=O)[C@H](CC(N)=O)NC(=O)[C@H](Cc3ccccc3)NC(=O)[C@H](C)NC(=O)[C@H](C)NC(=O)[C@H](CC(N)=O)NC(=O)[C@H]([C@@H](C)O)NC1=O)NC(=O)[C@H](CC(C)(C)C)NC(=O)[C@H](CC(=O)O)NC2=O (stereo partly drawn) : 3.99
CCNC(=O)CC[C@H](NC(=O)[C@H](Cc1csc2ccccc12)NC(=O)[C@H](Cc1ccsc1)NC(=O)[C@]12CCN(C1)C(=O)OCCCC=CCCCC1(CCCC=CC[C@]3(CCCN3C(C)=O)C(=O)N[C@@H](CC(=O)O)C(=O)N[C@@H](CC(C)(C)C)C(=O)N1)C(=O)N[C@@H](CC(=O)O)C(=O)N[C@@H](Cc1cccc(C(=O)O)c1)C(=O)NC(C)(C)C(=O)N[C@@H](C)C(=O)N[C@@H](Cc1ccccc1)C(=O)N[C@@H](CC)C(=O)N2)C(=O)N[C@@H](C)C(N)=O (stereo partly drawn) : 0.85
CCN(CC(=O)O)C[C@@H]1NC(=O)[C@H](CC(=O)O)NC(=O)C2(CCCC=CCCCCCC[C@@](C)(C(=O)N[C@@H](Cc3ccsc3)C(=O)N[C@@H](Cc3csc4ccccc34)C(=O)N[C@@H](CCC(N)=O)C(N)=O)NC(=O)[C@H](CC(N)=O)NC(=O)[C@H](Cc3ccccc3)NC(=O)[C@H](C)NC(=O)[C@H](C)NC1=O)CCCC=CC[C@]1(CCCN1C(C)=O)C(=O)N[C@@H](CC(=O)O)C(=O)N[C@@H](CC(C)(C)C)C(=O)N2 (stereo partly drawn) [I-1628] : 1.26
CCCC[C@@H]1NC(=O)[C@H](CC(=O)O)NC(=O)[C@]2(CC=CCCCC3(CCCC=CCCCOC(=O)N4CC[C@@](C(=O)N[C@@H](Cc5ccccc5)C(=O)N[C@@H](Cc5csc6ccccc56)C(=O)N[C@@H](CCC(N)=O)C(N)=O)(C4)NC(=O)[C@H](CC(C)C)NC(=O)[C@H](Cc4ccccc4)NC(=O)[C@H](C)NC(=O)[C@H](C)NC(=O)[C@H](CC(=O)O)NC(=O)[C@H](CC(=O)O)NC3=O)NC1=O)CCCN2C(C)=O (stereo partly drawn) : 0.78
CC(=O)N1CCC[C@]12CC=CCCCC1(CCCC=CCCCOC(=O)N3CC[C@@](C(=O)N[C@@H](Cc4ccsc4)C(=O)N[C@@H](Cc4csc5ccccc45)C(=O)N[C@@H](CCC(N)=O)C(N)=O)(C3)NC(=O)[C@H](CC(C)C)NC(=O)[C@H](Cc3ccccc3)NC(=O)[C@H](C)NC(=O)[C@H](C)NC(=O)[C@H](CN(CCC(F)(F)F)CC(=O)O)NC(=O)[C@H](CC(=O)O)NC1=O)NC(=O)[C@H](CC(C)(C)C)NC(=O)[C@H](CC(=O)O)NC2=O (stereo partly drawn) : 1.00

Entry CC(=O)N1CCC[C@]12CC=CCCCC1(CCCC=CCCCOC(=O)N3CC[C@@](C(=O)N[C@@H](Cc4ccsc4)C(=O)N[C@@H](Cc4csc5ccccc45)C(=O)N[C@@H](C)C(N)=O)(C3)NC(=O)[C@H](CC(N)=O)NC(=O)[C@H](Cc3ccccc3)NC(=O)[C@H](C)NC(=O)C(C)(C)NC(=O)[C@H]([C@@H](C)O)NC(=O)[C@H](CC(N)=O)NC1=O)NC(=O)[C@H](CC(C)(C)C)NC(=O)[C@H](CC(=O)O)NC2=O (stereo partly drawn) , tested on full-length beta-Catenin (Uniprot ID P35222) (Homo sapiens), has a reported log10(IC50) of 2.15

Result for CC(=O)N1CCC[C@]12CC=CCCCC1(CCCC=CCCCCCC[C@@](C)(C(=O)N[C@@H](Cc3ccsc3)C(=O)N[C@@H](Cc3csc4ccccc34)C(=O)N[C@@H](CCC(N)=O)C(N)=O)NC(=O)[C@H](CC(N)=O)NC(=O)[C@H](Cc3ccccc3)NC(=O)[C@H](C)NC(=O)[C@H](C)NC(=O)[C@H](CN(CC(=O)O)C(C)C)NC(=O)[C@H](CC(=O)O)NC1=O)NC(=O)[C@H](CC(C)(C)C)NC(=O)[C@H](CC(=O)O)NC2=O (stereo partly drawn) [I-1453] , tested on full-length beta-Catenin (Uniprot ID P35222) (Homo sapiens), log10(IC50): 1.72

full-length beta-Catenin (Uniprot ID P35222) (Homo sapiens) assay, compound CC(=O)N1CCC[C@]12CC=CCCCC1(CCCC=CCCCOC(=O)N3CC[C@@](C(=O)N[C@@H](Cc4ccccc4C(F)(F)F)C(=O)N[C@@H](Cc4csc5ccccc45)C(=O)N[C@@H](CO)C(N)=O)(C3)NC(=O)[C@H](CC(C)C)NC(=O)[C@H](Cc3ccccc3)NC(=O)[C@H](C)NC(=O)[C@H](C)NC(=O)[C@H](Cn3cc(C(C)(C)C(=O)O)nn3)NC(=O)[C@H](CC(=O)O)NC1=O)NC(=O)[C@H](CC(C)(C)C)NC(=O)[C@H](CC(=O)O)NC2=O (stereo partly drawn) , recorded log10(IC50) = 0.85
